- study_target: F-actin from rabbit back muscle (rabbit, UniProt P68135 1-377)
- protocol_description: SPR
recorded_metric: koff (s⁻¹)
Could you give me the number in s⁻¹? Just the number is fine.

The examples below pair each entry with its known result.
binder	koff / s⁻¹
SKTCGKAKVTGRWK (peptide, UniProt P45379-6 275-288, looked up) [Human cTnT-C14 peptide containing HCM-linked mutation R278C]	0.0169
SKTRGKAKVTGRWK (peptide, UniProt P45379-6 275-288, looked up)	0.0278
SKTRGKAKVTGCWK (peptide, UniProt P45379-6 275-288, looked up) [Human cTnT-C14 peptide containing HCM-linked mutation R286C]	0.0172

// next item, koff requested
**Query** // query koff value for entry SKTRGNAKVTGRWK (peptide, UniProt P45379-6 275-288, looked up) [Human cTnT-C14 peptide containing HCM-linked mutation K280N]
**Result** 0.0415
